biological target: HLA-B*40:01; assay: IEDB peptide-MHC binding, purified MHC/direct/fluorescence; filed as Kd, often an IC50 or EC50 that approximates it; bounds were set here for any values at or beyond the usual limits of such assays; settings: source organism: Influenza A virus (A/swine/Korea/S190/2004(H9N2))
pKd: −log10 of the molar value.
measure-name: pKd

Reported pKd, sequence WIPKRNRSI : ____ ≤ 4.70

* * *

biological target: HLA-A*68:01; test: IEDB peptide-MHC binding, purified MHC/competitive/radioactivity; filed as Kd, often an IC50 or EC50 that approximates it; bounds were set here for any values at or beyond the usual limits of such assays; details: source organism: Dengue virus 2 Jamaica/1409/1983
measure-name: pKd
Please express pKd as -log10 of the molar concentration.

Reported pKd, sequence FTTNIWLKLR : ____ 7.54

* * *

target: HLA-A*31:01; assay: IEDB peptide-MHC binding, purified MHC/direct/fluorescence; filed as Kd, often an IC50 or EC50 that approximates it; bounds were set here for any values at or beyond the usual limits of such assays; conditions: source organism: Bacillus anthracis
measure-name: Kd

Reported Kd, sequence VTECKLIYY : ____ ≥ 20 µM

* * *

target: HLA-A*26:02; experiment: IEDB peptide-MHC binding, purified MHC/direct/fluorescence; filed as Kd, often an IC50 or EC50 that approximates it; bounds were set here for any values at or beyond the usual limits of such assays; details: source organism: Variola virus
measure-name: Kd

Entry IFLIITKVF , system HLA-A*26:02: what Kd was measured? ≥ 20 µM

* * *

target: HLA-B*44:03; test: IEDB peptide-MHC binding, purified MHC/competitive/radioactivity; filed as Kd, often an IC50 or EC50 that approximates it; bounds were set here for any values at or beyond the usual limits of such assays; conditions: source organism: Dengue virus 3 Martinique/1243/1999
measure-name: Kd
Quote the value and follow it with the unit of measurement.

Reported Kd, sequence NEGVMAVGL : ____ 1810 nM

* * *

molecular target: HLA-A*26:03; assay: IEDB peptide-MHC binding, purified MHC/competitive/fluorescence; filed as Kd, often an IC50 or EC50 that approximates it; bounds were set here for any values at or beyond the usual limits of such assays; details: source organism: Human immunodeficiency virus 1
measure-name: Kd

Entry IATLYCVHQR , system HLA-A*26:03: what Kd was measured? ≥ 20 µM

* * *

target: HLA-A*29:02; test: IEDB peptide-MHC binding, purified MHC/competitive/radioactivity; filed as Kd, often an IC50 or EC50 that approximates it; bounds were set here for any values at or beyond the usual limits of such assays; conditions: source organism: SARS coronavirus Tor2
Reported Kd is given for each of the following sequences.
Number only, in nM; omit the unit.

Reported Kd, sequence SGALDTTSY : ____ 168

Reported Kd, sequence ASLGPLRETY : ____ 557

Reported Kd, sequence AYSFLPGVY : ____ 4.52

Reported Kd, sequence DYSVLYNSTF : ____ 2540

Reported Kd, sequence WFSQRGGSY : ____ 0.847

Reported Kd, sequence VSSPDAVTTY : ____ 1840

* * *

molecular target: HLA-B*44:02; test: IEDB peptide-MHC binding, purified MHC/competitive/radioactivity; filed as Kd, often an IC50 or EC50 that approximates it; bounds were set here for any values at or beyond the usual limits of such assays; conditions: source organism: Lymphocytic choriomeningitis virus (strain Armstrong)
measure-name: Kd (µM)
Number only, in µM; omit the unit.

Entry ADNMITEML , system HLA-B*44:02: what Kd was measured? 17.7

Each recorded value in this set is attributed to the Immune Epitope Database (IEDB).
